Just for reference, patent US20230134571A1 is where these values come from.

Collected IC50 (µg/ml) with constrains values appear next to each entry.
# TESTED_SYSTEM: HIV Env of isolate CNE19 (clade BC) (HIV)
# PROTOCOL_NOTES: cell-based or functional assay
RECORDED_METRIC: IC50 (µg/ml) with constrains (µg/mL)

binder="PGDM1400 (antibody, V domains shown) VH: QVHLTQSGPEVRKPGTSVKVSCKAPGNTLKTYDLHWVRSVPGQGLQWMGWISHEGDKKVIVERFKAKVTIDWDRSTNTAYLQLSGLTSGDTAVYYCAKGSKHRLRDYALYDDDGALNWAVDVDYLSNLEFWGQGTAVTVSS VL: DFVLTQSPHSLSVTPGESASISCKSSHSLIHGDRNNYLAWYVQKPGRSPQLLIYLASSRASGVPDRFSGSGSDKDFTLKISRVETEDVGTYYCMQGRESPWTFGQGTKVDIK" value_measured=0.005
binder="ePGDM13 (antibody, V domains shown) VH: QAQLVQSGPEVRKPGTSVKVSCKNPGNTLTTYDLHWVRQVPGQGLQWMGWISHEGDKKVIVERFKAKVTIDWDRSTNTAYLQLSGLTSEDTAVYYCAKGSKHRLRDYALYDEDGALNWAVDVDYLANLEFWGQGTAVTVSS VL: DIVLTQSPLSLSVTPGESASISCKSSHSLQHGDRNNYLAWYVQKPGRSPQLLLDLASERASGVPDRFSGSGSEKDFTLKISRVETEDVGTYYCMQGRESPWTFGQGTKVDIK" value_measured=0.003
binder="ePGDM9 (antibody, V domains shown) VH: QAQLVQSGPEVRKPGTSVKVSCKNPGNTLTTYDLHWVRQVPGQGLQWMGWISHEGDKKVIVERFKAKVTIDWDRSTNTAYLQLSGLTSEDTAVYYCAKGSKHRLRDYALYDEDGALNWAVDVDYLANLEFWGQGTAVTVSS VL: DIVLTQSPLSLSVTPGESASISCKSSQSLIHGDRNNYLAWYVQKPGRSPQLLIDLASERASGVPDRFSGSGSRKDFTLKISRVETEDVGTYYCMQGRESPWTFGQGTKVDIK" value_measured=0.003
binder="ePGDM5 (antibody, V domains shown) VH: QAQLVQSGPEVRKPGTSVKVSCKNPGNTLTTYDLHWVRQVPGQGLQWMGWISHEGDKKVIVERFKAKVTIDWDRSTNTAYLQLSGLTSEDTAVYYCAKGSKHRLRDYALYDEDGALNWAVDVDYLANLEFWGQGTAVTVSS VL: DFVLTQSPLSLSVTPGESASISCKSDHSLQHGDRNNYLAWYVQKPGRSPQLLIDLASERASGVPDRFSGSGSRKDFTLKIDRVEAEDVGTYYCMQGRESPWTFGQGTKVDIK" value_measured=0.003
